assay: solvent given as SMILES; settings: in Cc1ccccc1
measure: absorption maximum (nm)
Numbers only, in nm.

Examples with their reported absorption maximum follow.
[[record]]
molecule = "CC(C)(C)c1ccc2c(c1)c1cc(C(C)(C)C)ccc1n2-c1cc(-n2c3ccc(C(C)(C)C)cc3c3cc(C(C)(C)C)ccc32)c(-n2c3ccc(C(C)(C)C)cc3c3cc(C(C)(C)C)ccc32)c(C#N)c1-n1c2ccc(C(C)(C)C)cc2c2cc(C(C)(C)C)ccc21"
measure = "absorption maximum"
measureunit = "nm"
valueobserved = 422.84

[[record]]
molecule = "Cc1ccc2c(c1)C1(c3ccccc3-c3ccccc31)c1cc(C)ccc1N2c1ccc2c(c1)Oc1ccccc1P2(=S)c1ccccc1 (stereo unspecified)"
measure = "absorption maximum"
measureunit = "nm"
valueobserved = 311.25

[[record]]
molecule = "CCc1ccc(-c2nc(-c3ccc(-n4c5ccccc5c5ccccc54)cc3)cc(-c3ccc(-n4c5ccccc5c5ccccc54)cc3)n2)cc1"
measure = "absorption maximum"
measureunit = "nm"
valueobserved = 354

[[record]]
molecule = "c1ccc(-c2nc(-c3ccccc3)nc(-c3ccc(-n4c5ccc(-n6c7ccccc7c7ccccc76)cc5c5cc(-n6c7ccccc7c7ccccc76)ccc54)cc3)n2)cc1"
measure = "absorption maximum"
measureunit = "nm"
valueobserved = 368

[[record]]
molecule = "C=CCOC(=O)C(C#N)=C1C=C(/C=C/c2ccc(N(C)C)cc2)OC(/C=C/c2ccc(N(C)C)cc2)=C1"
measure = "absorption maximum"
measureunit = "nm"
valueobserved = 467


Alright, here's another molecule for you.
Entry under test: Cc1ccc(N(c2cc(C(C)(C)C)ccc2C)c2ccc3ccc4c(N(c5ccc(C)cc5C)c5cc(C(C)(C)C)ccc5C)ccc5ccc2c3c54)c(C)c1 . Its absorption maximum was 431
